Biological target: T1, GPNMB (Homo sapiens, UniProt Q14956)
T1 construct: made in house; host or cells: HEK 293
T1 sequence (Q14956 23-492): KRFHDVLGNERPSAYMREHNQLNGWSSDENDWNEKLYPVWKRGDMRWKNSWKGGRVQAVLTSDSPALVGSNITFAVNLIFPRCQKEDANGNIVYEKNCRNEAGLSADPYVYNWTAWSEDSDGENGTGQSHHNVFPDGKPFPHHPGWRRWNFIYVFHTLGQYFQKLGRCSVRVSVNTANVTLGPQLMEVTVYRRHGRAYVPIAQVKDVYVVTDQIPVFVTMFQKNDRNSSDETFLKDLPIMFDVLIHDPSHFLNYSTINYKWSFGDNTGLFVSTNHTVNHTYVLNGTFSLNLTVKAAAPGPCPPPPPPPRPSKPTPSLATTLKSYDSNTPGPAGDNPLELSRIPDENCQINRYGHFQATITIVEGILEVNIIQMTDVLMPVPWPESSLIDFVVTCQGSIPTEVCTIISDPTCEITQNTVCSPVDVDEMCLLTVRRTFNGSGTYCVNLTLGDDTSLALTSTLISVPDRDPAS
Test: BiaCore 2000 biosensor binding of hybridoma supernatant mAb to GPNMB
Settings: mAb captured on protein A, GPNMB 880 nM, 1:1 kinetic model
pKd by entry:
pKd is defined as minus the log10 of a concentration measured in mol/L.

INSERT INTO measurements (molecule, result) VALUES
  ('Mab1.7.1: human anti-GPNMB antibody; VH SEQ ID NO: 56, VL SEQ ID NO: 65 (antibody, listed as Homo sapiens, V domains shown) VH: QVQLQESGPGLVKPSQTLSLTCTVSGGSISSANYYWTWIRQHPGKGLEWIGYIYYSGSTYCNPSLKSRVIISVDTSKNQFSLKLSSVTAADTAVYYCARGYNWNYFDYWGQGTLVTVSSA VL: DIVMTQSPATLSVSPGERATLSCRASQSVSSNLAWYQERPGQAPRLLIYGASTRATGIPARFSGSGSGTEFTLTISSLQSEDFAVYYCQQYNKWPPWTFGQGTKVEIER', 6.91),
  ('Mab1.2.2: human anti-GPNMB antibody; VH SEQ ID NO: 38, VL SEQ ID NO: 47 (antibody, listed as Homo sapiens, V domains shown) VH: ITLKESGPTLVKPTQTLTLTCTFSGFSLSAGGVGVGWIRQPPGKALEWLALIYWNDDKRYSPSLRSRLTITKDTSKNQVVLTITNMDPVDTATYYCAHSHYDYDWGSYFDYWGQGTLVTVSSA VL: DIVMTQTPLSLPVTPGEPASISCRSSQSLLDSDDGNTYLDWYLQKPGQSPQLLIYTLSYRASGVPDRFSGSGSGTDFTLNISRVEAEDVGVYYCMQRIEFPITFGQGTRLEIKR', 7.02),
  ('Mab1.15.1 (protein, listed as Homo sapiens) QVQLQESGPGLVKPSQTLSLTCTVSGGSISSFNYYWSWIRHHPGKGLEWIGYIYYSGSTYSNPSLKSRVTISVDTSKNQFSLTLSSVTAADTAVYYCARGYNWNYFDYWGQGTLVTVSSA', 7.28);

Identify the reported pKd for the following entry. Mab1.10.2: human anti-GPNMB antibody; VH SEQ ID NO: 2, VL SEQ ID NO: 11 (antibody, listed as Homo sapiens, V domains shown) VH: QVQLQESGPGLVKPSETLSLTCTVSGDSISNYYWSWIRQPPGKGLEWIGYFYYSGSTNYNPSLKSRVTISVDTSKNQFSLKLSSVTAADTAVYYCARDRGWADYWGQGTLVTVSSA VL: EIVLTQSPGTLSLSPGERATLSCRTSQSISSSYLAWYQQKPGQVPRLLIYGASSRATGIPDRFSGSGSGTDFTLTISRLEPEDFAVYYCQQYGSSITFGQGTRLEIKR
6.93

The measured values listed here are drawn from patent US8846873B2.
